B1: CPEB3 Ribozyme (parent)
chain: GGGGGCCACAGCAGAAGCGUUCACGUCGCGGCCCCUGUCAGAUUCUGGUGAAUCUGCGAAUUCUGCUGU

Variants of: B1
Assay: self-cleavage, relative activity (ratio to wild type); higher = more cleavage; co-transcriptional
property.label: self-cleavage
No unit in the answer, please; the number alone is enough.

Worked examples follow.
>>> observed_measurement("GGGGGCCACAGCAGAAGCGUUCACGUCUCGGCCCCGGUCAGAUUCUGGUGAAUCUGCGAAUUCUGCUGU [G28U U36G]")
0.106
>>> observed_measurement("GGGGGCCACAGCAGAAGCGUUCACGUCGCGGCCCCUGACAGAUUAUGGUGAAUCUGCGAAUUCUGCUGU [U38A C45A]")
0.875
>>> observed_measurement("GGGGGCCACAGCAGACGCGUUCACGUCGCGGCCCCUGUCAGAUUGUGGUGAAUCUGCGAAUUCUGCUGU [A16C C45G]")
0.272
>>> observed_measurement("GGGGGCCACAGCAGAAGCGUUCACGUCGCAGCCCCUGUCAGAUUCUGGUGAAUCUGCGCAUUCUGCUGU [G30A A59C]")
0.275
>>> observed_measurement("GGGGGCCACAGCAGAAGCGUUCACGUCGCGGCCCCUGUCAGAUUCUGGUGAAUCUGCGUAUUCUGAUGU [A59U C66A]")
0.503

Next variant, self-cleavage to be filled in.
Record summary for GGGGGCCACAGCAGAAGCGUUCACGUCGCGGCCCCUGUCAGAUUCUGGUGAGUCUGCGAAUUCUGCCGU [A52G U67C] : reported self-cleavage = 0.944
